Entry source: patent US11014911B2

Below, each entry is listed alongside its reported pKi.
Target: CDK2/Cyclin E1 full length (Homo sapiens (Human))
Test: CDK2/Cyclin E1 full length mobility shift assay
pKi: −log10 of the molar value.
property: pKi

molecule="COc1ccc(CC(=O)Nc2cc([C@@H]3CC[C@H](OC(=O)N[C@H]4CC[C@@H](O)CC4)C3)[nH]n2)nc1 [Example 554]" test_target="CDK2/Cyclin E1 full length (Homo sapiens (Human))" property=pKi assay_result=8.75
molecule="Cc1ccc(CC(=O)Nc2cc([C@H]3CC[C@@H](OC(=O)NCC(F)F)C3)[nH]n2)cn1 [Example 247]" test_target="CDK2/Cyclin E1 full length (Homo sapiens (Human))" property=pKi assay_result=8.87
molecule="COc1cc(CC(=O)Nc2cc([C@@H]3CC[C@H](OC(=O)NC4CCOCC4)C3)[nH]n2)ccn1 [Example 503]" test_target="CDK2/Cyclin E1 full length (Homo sapiens (Human))" property=pKi assay_result=8.67
molecule="COc1cc(C(=O)Nc2cc([C@H]3CC[C@@H](OC(=O)N[C@H](C)CC(F)(F)F)C3)[nH]n2)n(C)n1 [Example 402]" test_target="CDK2/Cyclin E1 full length (Homo sapiens (Human))" property=pKi assay_result=8.81
molecule="CCc1nn2cc(CC(=O)Nc3cc([C@H]4CC[C@@H](OC(=O)N[C@@H](C)CC)C4)[nH]n3)nc2s1 [Example 367]" test_target="CDK2/Cyclin E1 full length (Homo sapiens (Human))" property=pKi assay_result=9.57
molecule="CCCNC(=O)O[C@@H]1CC[C@H](c2cc(NC(=O)c3cc(C)nn3C)n[nH]2)C1 [Example 173]" test_target="CDK2/Cyclin E1 full length (Homo sapiens (Human))" property=pKi assay_result=8.64
molecule="CC(C)NC(=O)O[C@@H]1CC[C@H](c2cc(NC(=O)Cc3ccn(C)n3)n[nH]2)C1 [Example 267]" test_target="CDK2/Cyclin E1 full length (Homo sapiens (Human))" property=pKi assay_result=8.52
